The measured values listed here are drawn from patent US20240368668A1.

- assaySystem: mouse ADAMTS7 (Mus musculus, UniProt Q68SA9, E373Q)
- Construct: Full-length mouse Adamts7 1-1857 (Uniprot Q68SA9, WT or E373Q catalytic mutant); expressed in transfected cells; host or cells: Human Coronary Artery Smooth Muscle Cells (HCA-SMC, Lonza), adenovirus 50 MOI
- Sequence (Q68SA9 221-1657 E373Q): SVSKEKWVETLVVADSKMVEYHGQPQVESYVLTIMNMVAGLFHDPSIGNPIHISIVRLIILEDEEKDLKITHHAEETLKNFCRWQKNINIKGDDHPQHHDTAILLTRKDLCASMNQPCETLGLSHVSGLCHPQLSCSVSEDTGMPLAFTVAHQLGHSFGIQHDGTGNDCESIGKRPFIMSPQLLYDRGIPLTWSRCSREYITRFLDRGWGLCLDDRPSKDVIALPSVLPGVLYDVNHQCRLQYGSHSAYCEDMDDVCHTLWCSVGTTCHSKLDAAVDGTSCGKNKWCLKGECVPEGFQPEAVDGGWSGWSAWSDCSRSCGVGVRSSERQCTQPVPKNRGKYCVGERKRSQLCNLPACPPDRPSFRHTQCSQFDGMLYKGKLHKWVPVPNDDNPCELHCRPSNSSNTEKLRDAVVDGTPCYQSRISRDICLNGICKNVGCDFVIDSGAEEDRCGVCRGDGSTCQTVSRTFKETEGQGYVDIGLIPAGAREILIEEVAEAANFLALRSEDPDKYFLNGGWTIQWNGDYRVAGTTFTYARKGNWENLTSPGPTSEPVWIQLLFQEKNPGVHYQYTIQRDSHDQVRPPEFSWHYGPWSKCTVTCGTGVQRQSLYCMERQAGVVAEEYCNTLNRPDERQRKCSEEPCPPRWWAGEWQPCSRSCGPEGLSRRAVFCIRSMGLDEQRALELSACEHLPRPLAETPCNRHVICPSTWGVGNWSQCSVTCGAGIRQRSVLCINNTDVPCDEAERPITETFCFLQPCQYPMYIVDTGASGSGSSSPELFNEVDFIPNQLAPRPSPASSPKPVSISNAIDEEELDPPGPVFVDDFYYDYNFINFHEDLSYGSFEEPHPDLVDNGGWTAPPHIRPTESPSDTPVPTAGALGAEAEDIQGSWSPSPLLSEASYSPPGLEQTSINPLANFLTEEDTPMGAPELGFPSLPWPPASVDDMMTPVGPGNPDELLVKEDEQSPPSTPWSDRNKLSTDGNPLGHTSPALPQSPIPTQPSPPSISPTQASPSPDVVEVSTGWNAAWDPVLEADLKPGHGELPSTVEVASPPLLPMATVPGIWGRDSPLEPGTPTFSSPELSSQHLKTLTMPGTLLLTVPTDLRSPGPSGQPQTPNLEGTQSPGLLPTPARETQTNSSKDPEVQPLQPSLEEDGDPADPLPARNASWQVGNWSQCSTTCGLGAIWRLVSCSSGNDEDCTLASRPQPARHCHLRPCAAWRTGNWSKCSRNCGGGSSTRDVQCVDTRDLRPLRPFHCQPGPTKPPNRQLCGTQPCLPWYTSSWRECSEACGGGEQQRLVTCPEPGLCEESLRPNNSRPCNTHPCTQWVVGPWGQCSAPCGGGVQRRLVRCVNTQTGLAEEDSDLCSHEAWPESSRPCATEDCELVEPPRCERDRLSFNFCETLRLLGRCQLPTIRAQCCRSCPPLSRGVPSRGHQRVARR
- procedureSummary: TMT10 TAILS N-terminomics, SMC2 experiment (process replicates, trypsin/AspN digest)
- Assay type: cell-based
- conditionInfo: log fold change, ADAMTS7 EQ over luciferase
Square brackets hold non-standard residues; d marks the D form. Ends that are not written are not given here.
Label Criterion met when logFC.mEQ.over.Luc is at or above 0.03; anything below gets Criterion not met.

Reference set, count: 8
SPOCK1_126 (HWVGPSNLVK; listed as Homo sapiens); Criterion met
THBS1_972 (QNDPNWVVR; listed as Homo sapiens); Criterion not met
TGFBI_276 (TLLAPT[code n]EAFEKIPSETLNR; not fully specified; listed as Homo sapiens); Criterion met
SRGN_51 (EEKGPMFELLPGESNKIPR; listed as Homo sapiens); Criterion not met
SRGN_62 (GESNKIPR; listed as Homo sapiens); Criterion not met
TGFBI_534 (EGVYTVFAPTNEAFR; listed as Homo sapiens); Criterion met
SDC4_106 (LEENEVIPKR; listed as Homo sapiens); Criterion not met
TG_1017 (GASALLR; listed as Homo sapiens); Criterion met

Hi, just wondering whether TGFBI_208 (GIVTVNCAR; listed as Homo sapiens) shows logFC.mEQ.over.Luc of 0.03 or higher. Criterion met
